Target: T1, 4H3782-AA
T1 chain: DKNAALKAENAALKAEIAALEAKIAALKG
Test: two-hybrid library CCmax;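 note: natural log of median RNA to DNA barcode read ratio; higher means stronger binding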
Details: mean of both orientations
property-measured: interaction score
Please state the value as a number alone, without comment.

{"columns": ["binder", "interaction score"],
 "data": [
  ["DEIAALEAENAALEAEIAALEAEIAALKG [4H130-AA]", 1.3],
  ["DKNAALKAEIAALKAKNAALKAEIAALEG [4H3705-AA]", -1.26],
  ["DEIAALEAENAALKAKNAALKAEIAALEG [4H249-AA]", 1.43],
  ["DKNAALKAEIAALEAEIAALKAENAALEG [4H3595-AA]", -1.1]
]}

// interaction score lookup, binder = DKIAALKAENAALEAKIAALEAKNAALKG [4H2728-AA] , result: -1.28

// interaction score lookup, binder = DKNAALEAKIAALKAENAALEAKIAALKG [4H3414-AA] , result: -1.23

// interaction score lookup, binder = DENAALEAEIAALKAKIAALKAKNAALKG [4H1136-AA] , result: -0.406

Measured values drawn from paper PMC10397247 for this set.
